The reported measurements were obtained from patent US20100093764A1.

# TESTED_SYSTEM: human adenosine A2a receptor (Homo sapiens)
# PROTOCOL_DESCRIPTION: Adenosine A2a Receptor Functional Assay (A2AGAL2)
# CONDITION_INFO: CHO-K1 cells overexpressing human A2a receptor, cAMP inducible beta-galactosidase reporter, 15 nM NECA agonist challenge
The entries below are paired with their reported pKi.
pKi is a log-scale quantity: -log10 of the concentration expressed in molar.

Tell me the measured pKi of `N#Cc1cccc(-c2nc(N)c3cc(Nc4ccccc4)sc3n2)c1` , please.
7.05

Could you tell me which pKi is on file for `CN(c1cc2c(N)nc(-c3cccc(C#N)c3)nc2s1)c1ccccc1Cl` ?
6.50

Would you kindly share the measured pKi for `COc1cccc(N(C)c2cc3c(N)nc(-c4cccc(C#N)c4)nc3s2)c1` ?
6.56

###

# TESTED_SYSTEM: human adenosine A1 receptor (Homo sapiens)
# Construct: expressed in transfected cells; host or cells: CHO-K1 cells with a cAMP inducible beta-galactosidase reporter gene
# PROTOCOL_DESCRIPTION: Adenosine A1 Receptor Functional Assay (A1GAL2)
# Assay type: cell-based
# CONDITION_INFO: CHO-K1 cells overexpressing human A1 receptor, cAMP inducible beta-galactosidase reporter, 4 nM r-PIA/1 uM Forskolin agonist challenge
pKi: −log10 of the molar value.
true means recorded pKi is 6 or above; false means it is below 6.

CN(c1cc2c(N)nc(-c3cccc(C#N)c3)nc2s1)c1ccccc1Cl [Example 8] ... false
COc1ccccc1Nc1cc2c(N)nc(-c3cccc(C#N)c3)nc2s1 [Example 2] ... true
CN(c1ccccc1)c1cc2c(N)nc(-c3cccc(C#N)c3)nc2s1 [Example 5] ... false
COc1ccccc1N(C)c1cc2c(N)nc(-c3cccc(C#N)c3)nc2s1 [Example 3] ... true
N#Cc1cccc(-c2nc(N)c3cc(Nc4ccccc4F)sc3n2)c1 [Example 10] ... false

Say whether N#Cc1cccc(-c2nc(N)c3cc(S(=O)(=O)c4ccccc4)sc3n2)c1 [Example 12] shows pKi of 6 or more.
true

In plain terms: is recorded pKi at least 6 for COc1cccc(N(C)c2cc3c(N)nc(-c4cccc(C#N)c4)nc3s2)c1 [Example 9] ?
false

###

# TESTED_SYSTEM: human adenosine A2a receptor (Homo sapiens, UniProt P29274)
# Sequence (P29274 whole entry): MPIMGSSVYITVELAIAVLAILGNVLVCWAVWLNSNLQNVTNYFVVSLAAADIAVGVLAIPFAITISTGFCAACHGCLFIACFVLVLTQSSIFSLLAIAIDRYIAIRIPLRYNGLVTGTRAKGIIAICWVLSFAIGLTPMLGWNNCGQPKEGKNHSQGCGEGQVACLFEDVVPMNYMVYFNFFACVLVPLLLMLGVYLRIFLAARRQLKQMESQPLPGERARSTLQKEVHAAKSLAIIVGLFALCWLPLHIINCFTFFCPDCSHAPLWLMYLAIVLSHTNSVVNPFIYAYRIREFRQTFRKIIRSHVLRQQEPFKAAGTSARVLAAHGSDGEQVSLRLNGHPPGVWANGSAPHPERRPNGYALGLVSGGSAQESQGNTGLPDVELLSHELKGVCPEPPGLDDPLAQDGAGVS
# PROTOCOL_DESCRIPTION: Adenosine A2a Receptor Functional Assay (A2AGAL2)
# CONDITION_INFO: CHO-K1 cells overexpressing human A2a receptor, cAMP inducible beta-galactosidase reporter, 15 nM NECA agonist challenge
PROPERTY_MEASURED: pKi
Keep it numeric: pKi is minus log10 of the concentration in mol/L.

CN(c1ccccc1)c1cc2c(N)nc(-c3cccc(C#N)c3)nc2s1 ... 6.90
N#Cc1cccc(-c2nc(N)c3cc(Nc4ccccc4F)sc3n2)c1 ... 6.88
N#Cc1cccc(-c2nc(N)c3cc(Nc4ccccc4Cl)sc3n2)c1 ... 6.64
CN(c1cccc(F)c1)c1cc2c(N)nc(-c3cccc(C#N)c3)nc2s1 ... 6.40
N#Cc1cccc(-c2nc(N)c3cc(Nc4ccccn4)sc3n2)c1 ... 7.07
COc1ccccc1Nc1cc2c(N)nc(-c3cccc(C#N)c3)nc2s1 ... 7.94

Suppose we examine the molecule `N#Cc1cccc(-c2nc(N)c3cc(S(=O)(=O)c4ccccc4)sc3n2)c1` ; what pKi value has been reported?
7.80

Quick one: pKi of `COc1ccccc1N(C)c1cc2c(N)nc(-c3cccc(C#N)c3)nc2s1` ?
6.99

Sample `COc1cccc(Nc2cc3c(N)nc(-c4cccc(C#N)c4)nc3s2)c1` — what was its pKi?
6.58

###

# TESTED_SYSTEM: human adenosine A1 receptor (Homo sapiens, UniProt P30542)
# Sequence (P30542 whole entry): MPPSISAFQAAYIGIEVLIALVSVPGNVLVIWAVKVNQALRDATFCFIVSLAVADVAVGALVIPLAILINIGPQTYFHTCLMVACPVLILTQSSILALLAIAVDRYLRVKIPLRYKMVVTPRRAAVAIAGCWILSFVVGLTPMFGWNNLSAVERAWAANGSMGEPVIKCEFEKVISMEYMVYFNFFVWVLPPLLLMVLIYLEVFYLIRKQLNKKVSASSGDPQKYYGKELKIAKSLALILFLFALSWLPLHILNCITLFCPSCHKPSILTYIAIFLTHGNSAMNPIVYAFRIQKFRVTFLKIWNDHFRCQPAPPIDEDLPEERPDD
# PROTOCOL_DESCRIPTION: Adenosine A1 Receptor Functional Assay (A1GAL2)
# CONDITION_INFO: CHO-K1 cells overexpressing human A1 receptor, cAMP inducible beta-galactosidase reporter, 4 nM r-PIA/1 uM Forskolin agonist challenge
PROPERTY_MEASURED: pKi
Here pKi is given on a logarithmic scale as minus log10 of the concentration in mol/L.

Below, each entry is followed by its recorded pKi result.
COc1cccc(Nc2cc3c(N)nc(-c4cccc(C#N)c4)nc3s2)c1 ... 5.62
CN(c1cccc(F)c1)c1cc2c(N)nc(-c3cccc(C#N)c3)nc2s1 ... 5.28

Shifting focus to the compound that follows.
Param item = `N#Cc1cccc(-c2nc(N)c3cc(Nc4ccccc4Cl)sc3n2)c1` ; retrieve measured pKi.
5.64
